# test_target: EGFR (Homo sapiens)
# Construct: host or cells: A431
# procedure_text: EGFR in-cell Western (ICW) screening protocol (EGFR inhibition assay)
# Type: cell-based
# Set-up: unit not given here
# run_conditions: ICW assay, run 2
# Method: The following example describes general EGFR in-cell Western (ICW) screening protocol. Methods are according to Chen et al. (2005) Analytical Biochemistry 338, 136-142 (incorporated herein by reference), except as otherwise noted. Cell Plates: A431 cells (ATCC # CRL-1555) were grown in Dulbecco's Modified Eagle Medium (DMEM; ATCC #30-2002) supplemented with 10% fetal bovine serum, 105 units/ml pen/strep (Invitrogen #15140155) and 2.1 mM L-glutamine (ATCC #30-2214). […]
Counter-ions that a name gives are not always drawn.
Output: class label from ICW 2. Mapping: low group = under 30, middle group = from 30 up to 40, high group = 40 and over

molecule	answer_label
COc1cccc(-c2cc(=O)[nH]c(Nc3nc(C)c4cccc(OC)c4n3)n2)c1 [11513 + TFA]	middle group
CCOC(=O)c1c(N)nc(Nc2nc(C)c3cc(C)ccc3n2)nc1-c1ccccc1 [compound 11812]	high group
CCc1c(C)nc(Nc2nc(C)c3cccc(OC)c3n2)[nH]c1=O [compound 12613]	high group
Cc1ccc2nc(Nc3nc(CSc4ncccn4)cc(=O)[nH]3)nc(C)c2c1	low group

**Query** Field: class (ICW 2) — entry: CCCc1c[nH]c(Nc2nc(C)c3ccccc3n2)nc1=O [compound 12662]
**Result** low group

**Query** Hello team, could you let me know which band the following molecule falls into: CCOc1ccc2nc(Nc3nc(=O)cc(-c4ccccc4)[nH]3)nc(C)c2c1 [12608 + TFA]
**Result** middle group

**Query** Bin? Cc1nc(Nc2ncc3c(n2)CC(c2ccco2)CC3=O)nc2ccccc12 (stereo not drawn) [11679 + TFA]
**Result** low group

**Query** Any idea which band CCCc1cc(=O)[nH]c(Nc2nc(C)c3ccc(C)cc3n2)n1 [compound 12655] is in?
**Result** middle group

* * *

# Test system: MDBK line
# procedure_text: MTT Cell Proliferation Assay, MDBK cells
# Type: cell-based, bovine
# run_conditions: Bos taurus, MDBK, Table 11; second of x/y(ratio): MDBK; unit inferred; read-out: MTT Follow-up (second value)
test_readout: IC50 (µM)
Could you give me the number in µM? Just the number is fine.

Answered cases to consult:
molecule_smiles	units_label	IC50
COc1ccc(N2CCN(Cc3cc(=O)oc4cc5c(cc34)OCO5)CC2)cc1	µM	50.1
CCc1cc2c(CN3CCN(Cc4ccc5c(c4)OCO5)CC3)cc(=O)oc2cc1O	µM	40.2
Cc1cc(C)c2oc(=O)cc(CN3CCN(Cc4ccc5c(c4)OCO5)CC3)c2c1	µM	101

Okay, now this compound:
Lookup result for CCc1cc2c(CN3CCN(C(c4ccccc4)c4ccccc4)CC3)cc(=O)oc2cc1O ; measured IC50: 3.06

* * *

# System: epithelial carcinoma A431 cell line
# procedure_text: MTT Cell Proliferation Assay, A431 cells
# Format: cell-based
# run_conditions: Homo sapiens, A-431, Table 11; first of x/y(ratio): A431; unit not printed (doses in μM); read-out: MTT Screen (first value)
test_readout: log10 IC50 (log10 of the value in µM)
Transform log10 | Measure IC50 | Unit µM

Sample answers from the record:
compound	log10 IC50
O=c1cc(CN2CCN(C(c3ccccc3)c3ccccc3)CC2)c2ccc(O)c(O)c2o1 [AD4-10633]	0.72
CCc1cc2c(CN3CCN(Cc4ccc5c(c4)OCO5)CC3)cc(=O)oc2cc1O [AD4-1734]	1.36
CCc1cc2c(CN3CCN(c4ccc(OC)cc4)CC3)cc(=O)oc2cc1O [AD4-10171]	1.22
CC(C)c1ccc2oc(=O)cc(CN3CCN(C/C=C/c4ccccc4)CC3)c2c1 [AD4-10188]	0.96

Per the record, CCc1cc2c(CN3CCN(Cc4ccccc4)CC3)cc(=O)oc2cc1O [AD4-10186] has log10 IC50 of 1.60

Reported log10 IC50 ( Cc1cc(C)c2oc(=O)cc(CN3CCN(Cc4ccc5c(c4)OCO5)CC3)c2c1 [AD4-10174] ) = 0.35

Per the records, this compound ( Cc1c(O)ccc2c(CN3CCN(Cc4ccc5c(c4)OCO5)CC3)cc(=O)oc12 [AD4-10637] ) has log10 IC50 equal to 1.32

* * *

We begin with a simple list: items and their reported ICW 1.
# test_target: EGFR (Homo sapiens, UniProt P00533)
# Construct: host or cells: A431
# Sequence (P00533 25-1210): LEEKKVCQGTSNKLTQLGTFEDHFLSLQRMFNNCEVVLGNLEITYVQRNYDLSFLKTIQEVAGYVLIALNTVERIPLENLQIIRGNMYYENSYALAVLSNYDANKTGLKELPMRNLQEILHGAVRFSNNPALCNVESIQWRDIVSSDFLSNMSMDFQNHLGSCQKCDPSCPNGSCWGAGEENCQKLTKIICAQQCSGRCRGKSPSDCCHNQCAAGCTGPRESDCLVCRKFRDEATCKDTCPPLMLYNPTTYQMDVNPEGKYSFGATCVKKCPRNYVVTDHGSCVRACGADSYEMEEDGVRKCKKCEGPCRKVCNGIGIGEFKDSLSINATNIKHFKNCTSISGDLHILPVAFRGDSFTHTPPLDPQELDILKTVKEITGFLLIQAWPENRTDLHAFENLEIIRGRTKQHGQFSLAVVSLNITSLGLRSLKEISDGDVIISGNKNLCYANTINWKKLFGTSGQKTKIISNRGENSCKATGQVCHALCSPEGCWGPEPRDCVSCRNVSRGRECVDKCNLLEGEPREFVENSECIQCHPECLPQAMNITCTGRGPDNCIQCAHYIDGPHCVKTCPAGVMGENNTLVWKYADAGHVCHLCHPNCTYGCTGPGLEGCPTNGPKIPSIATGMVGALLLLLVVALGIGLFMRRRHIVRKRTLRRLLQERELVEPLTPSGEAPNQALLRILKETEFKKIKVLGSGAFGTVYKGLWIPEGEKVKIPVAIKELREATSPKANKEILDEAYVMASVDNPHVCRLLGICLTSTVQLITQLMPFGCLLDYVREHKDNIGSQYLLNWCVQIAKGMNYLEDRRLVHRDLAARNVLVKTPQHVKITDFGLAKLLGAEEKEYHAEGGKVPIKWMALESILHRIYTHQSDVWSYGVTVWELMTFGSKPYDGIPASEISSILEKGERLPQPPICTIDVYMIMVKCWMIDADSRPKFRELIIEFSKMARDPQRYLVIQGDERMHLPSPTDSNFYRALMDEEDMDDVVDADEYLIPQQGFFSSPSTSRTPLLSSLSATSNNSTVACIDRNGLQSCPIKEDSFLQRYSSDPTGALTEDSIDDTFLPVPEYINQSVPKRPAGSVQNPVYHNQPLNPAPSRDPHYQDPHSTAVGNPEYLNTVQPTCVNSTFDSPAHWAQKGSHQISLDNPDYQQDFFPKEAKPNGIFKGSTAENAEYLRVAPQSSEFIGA
# procedure_text: EGFR in-cell Western (ICW) screening protocol (EGFR inhibition assay)
# Type: cell-based
# Design: unit not given here
# run_conditions: ICW assay, run 1
Where a name gives a salt, the structure may show the parent alone.

Some compounds with known ICW 1 results, for comparison:
compound	test_target	recorded_measurement
Cc1cc(C)c2nc(NC3=NC(c4ccccc4)CC(=O)N3)nc(C)c2c1 (centres unmarked) [AD4-12641 + TFA]	EGFR (Homo sapiens, UniProt P00533)	70.26
Cc1ccc(C2CC(=O)c3cnc(Nc4nc(C)c5cccc(C)c5n4)nc3C2)cc1 (centres unmarked) [11673 + TFA]	EGFR (Homo sapiens, UniProt P00533)	33.30
CCOC(=O)c1c(N)nc(Nc2nc(C)c3cc(C)ccc3n2)nc1-c1ccccc1 [compound 12681]	EGFR (Homo sapiens, UniProt P00533)	89.93

Item: CCc1ccc2nc(Nc3nc(-c4cccc(OC)c4)cc(=O)[nH]3)nc(C)c2c1 | ICW 1: 25.88

Sure, the documented ICW 1 for CCCc1cc(=O)[nH]c(Nc2nc(C)c3ccc(OC)cc3n2)n1 [AD4-12652 + TFA] is 82.35

* * *

# test_target: EGFR (Homo sapiens)
# Construct: host or cells: A431
# procedure_text: EGFR in-cell Western (ICW) screening protocol (EGFR inhibition assay)
# Assay type: cell-based
# Design: unit not given here
# run_conditions: ICW assay, run 2
Structures can show the parent of a compound that is named as a salt.
Each record's class is read off its ICW 2 using these ranges: 1 = under 30, 2 = from 30 up to 40, 3 = 40 and over

compound	answer_label
Cc1ccc2nc(Nc3nc(C)cc(C(F)(F)F)n3)nc(C)c2c1 [11816 + TFA]	1
COc1ccc2nc(Nc3nc(CSc4nnnn4-c4ccccc4)cc(=O)[nH]3)nc(C)c2c1	2
Cc1nc(Nc2nc(CCC(C)C)cc(=O)[nH]2)nc2ccccc12	2

**Query** In plain terms, what class is CCc1ccc2c(C)nc(Nc3nc(C)c(CCC(C)C)c(=O)[nH]3)nc2c1 [11771 + TFA] ?
**Result** 3

**Query** Class for COc1cccc2c(C)nc(Nc3nc(-c4ccc(F)cc4)cc(=O)[nH]3)nc12 [compound 12620] ?
**Result** 2

**Query** GET /class?item= Cc1ccc2c(C)nc(Nc3nc(CCC(C)C)cc(=O)[nH]3)nc2c1 [11783 + TFA]
**Result** 3

**Query** Hello team, could you let me know which band the following compound falls into: CCCc1c[nH]c(Nc2nc(C)c3ccccc3n2)nc1=O [compound 12622]
**Result** 2

**Query** Which bin, given its ICW 2, does Cc1ccc2nc(Nc3nc(C(C)C)cc(=O)[nH]3)nc(C)c2c1 [12741 + TFA] occupy?
**Result** 1

* * *

# test_target: EGFR (Homo sapiens, UniProt P00533)
# Construct: host or cells: A431
# procedure_text: EGFR in-cell Western (ICW) screening protocol (EGFR inhibition assay)
# Format: cell-based
# Set-up: unit not given here
# run_conditions: ICW assay, run 2
Structures can show the parent of a compound that is named as a salt.
test_readout: ICW 2
// return a plain number; no unit text

These solved cases illustrate the format of a correct answer.
molecule	test_target	test_readout	recorded_measurement
CCCc1c(-c2ccccc2)nc(Nc2nc(C)c3ccccc3n2)[nH]c1=O [compound 12732]	EGFR (Homo sapiens, UniProt P00533)	ICW 2	86.41
CCOc1ccc2nc(Nc3nc(=O)c(Cc4ccc(C)cc4)c(C)[nH]3)nc(C)c2c1	EGFR (Homo sapiens, UniProt P00533)	ICW 2	25.76
Cc1cc2nc(Nc3nc(=O)c(C)c(C)[nH]3)nc(C)c2cc1C [12630 + TFA]	EGFR (Homo sapiens, UniProt P00533)	ICW 2	34.97

Attention now turns to another entry.
Measured ICW 2 for this entry Cc1ccc2c(C)nc(Nc3nc(C)c(CCC(C)C)c(=O)[nH]3)nc2c1 [11712 + TFA] on EGFR (Homo sapiens, UniProt P00533): 46.11

* * *

# test_target: EGFR (Homo sapiens, UniProt P00533)
# Construct: host or cells: A431
# procedure_text: EGFR in-cell Western (ICW) screening protocol (EGFR inhibition assay);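 for ICW Screen (ICW Inhibition): compound at 125 µM in assay in A431 cells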
# Format: cell-based
test_readout: ICW Screen (ICW Inhibition)
API note: the answer field is a bare number with no unit suffix.

compound	test_target	test_readout	recorded_measurement
Cc1cc(C)nc(NS(=O)(=O)c2ccc(NC(=S)NC(=O)/C=C/c3ccc(C(C)C)cc3)cc2)n1 [AD4-11642]	EGFR (Homo sapiens, UniProt P00533)	ICW Screen (ICW Inhibition)	40.922

Documented ICW Screen (ICW Inhibition) of Cc1ccc(NS(=O)(=O)c2ccc(NC(=S)NC(=O)CCc3ccccc3)cc2)cc1C [AD4-12103] : 26.212

Measured ICW Screen (ICW Inhibition), CN(Cc1ccccc1)S(=O)(=O)c1ccc(NC(=S)NC(=O)C2CCCC2)cc1 [AD4-12039] : 29.977
